Numbers sourced from PubChem BioAssay AID1195.

System: human maximum recommended daily dose, FDA database
assaySummary: DSSTox (FDAMDD) FDA Maximum (Recommended) Daily Dose Database
testSettings: TherapeuticCategory: antihypertensive; stronger effect = lower value
Lab note: compare maximum recommended daily dose (mmol/kg-bw/day) with 0.0008, writing T if less and F if equal or more.

Illustrative cases are given below, each with its answer.
> print(dat)
                                    compound  classification
 1                      N=C(N)N1CCc2ccccc2C1               F
 2  CNC1(C)C2CCC(C2)C1(C)C (centres undefined)               F
 3  CCCCc1nc(Cl)c(CO)n1Cc1ccc(-c2ccccc2-c2nn[nH]n2)cc1               F
 4  NS(=O)(=O)c1cc2c(cc1Cl)NC(CC1CCCC1)NS2(=O)=O (centres undefined)               T
 5  COC(=O)[C@H]1[C@H]2C[C@@H]3c4[nH]c5cc(OC)ccc5c4CCN3C[C@H]2C[C@@H](OC(=O)/C=C/c2cc(OC)c(OC)c(OC)c2)[C@@H]1OC               T
 6  CC(CCc1ccccc1)NCC(O)c1ccc(O)c(C(N)=O)c1 (centres undefined)               F
 7  O=C1N(Cc2ccccc2)C2C[S+]3CCCC3C2N1Cc1ccccc1 (centres undefined)               T
 8  COc1cc2nc(N3CCN(C(=O)C4CCCO4)CC3)nc(N)c2cc1OC (centres undefined)               F
 9  CC(Oc1c(Cl)cccc1Cl)C1=NCCN1 (centres undefined)               T
10  CCC(=O)OC(OP(=O)(CCCCc1ccccc1)CC(=O)N1C[C@H](C2CCCCC2)C[C@H]1C(=O)O)C(C)C (some centres undefined)               F

Request: Is maximum recommended daily dose (mmol/kg-bw/day) strictly under 0.0008 for the entry CN=C(NC)NCc1ccccc1 ?
Response: F

Request: Is maximum recommended daily dose (mmol/kg-bw/day) strictly under 0.0008 for the entry CCCCC1=NC2(CCCC2)C(=O)N1Cc1ccc(-c2ccccc2-c2nn[nH]n2)cc1 ?
Response: F

Request: Is maximum recommended daily dose (mmol/kg-bw/day) strictly under 0.0008 for the entry CCOC(=O)Oc1c(OC)cc(C(=O)O[C@@H]2C[C@@H]3CN4CCc5c([nH]c6cc(OC)ccc56)[C@H]4C[C@@H]3[C@H](C(=O)OC)[C@H]2OC)cc1OC ?
Response: T

Request: Is maximum recommended daily dose (mmol/kg-bw/day) strictly under 0.0008 for the entry COc1cc2nc(N3CCN(C(=O)C4COc5ccccc5O4)CC3)nc(N)c2cc1OC (centres undefined) ?
Response: T

Request: Is maximum recommended daily dose (mmol/kg-bw/day) strictly under 0.0008 for the entry CCCc1nc2c(C)cc(-c3nc4ccccc4n3C)cc2n1Cc1ccc(-c2ccccc2C(=O)O)cc1 ?
Response: F

Request: Is maximum recommended daily dose (mmol/kg-bw/day) strictly under 0.0008 for the entry CCC(C)C(C)(COC(N)=O)COC(N)=O (centres undefined) ?
Response: F

Request: Is maximum recommended daily dose (mmol/kg-bw/day) strictly under 0.0008 for the entry CCOC(=O)[C@H](CCc1ccccc1)N[C@@H](C)C(=O)N1CCC[C@H]1C(=O)O ?
Response: F
